List of GFP response vs DMSO values.
- assaySummary: yeast TOR pathway CIT2-GFP reporter retest – flow cytometry, third cherry pick, single plex, confirmation (AID 504340);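 further: median GFP fluorescence over all cells with no mother versus daughter split; sample signal as a ratio to the plate DMSO mean so 100% equals DMSO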
- conditions: S. cerevisiae CIT2-GFP strain, 3 h, at 10 µM, stronger effect = higher value
quantityKind: GFP response vs DMSO (%)

CCN1CCN(c2ncnc3ccc(Br)cc23)CC1 : 109
C/C(O)=C(\C#N)C(=O)Nc1cc(Br)ccc1Br : 116
Cc1ccc2c(c1N)C(=O)c1ccccc1C2=O : 109
CN1CCN(c2ncnc3ccc(Br)cc23)CC1 : 103
CN(C)C(=O)Oc1ccc(Cl)c2cccnc12 : 104

Hey, just so you know, these numbers are from PubChem BioAssay AID504340.
